- ASSAY TEXT: Biodistribution studies
- Assay type: in vivo, mice
- CONDITIONS USED: athymic nude Foxn1^nu, mouse, in vivo, iv, 1 MBq, total radioactivity, Tumor-to-organ uptake ratio Tumor/Blood
*1 amine or outer side, *2 acyl side, *3 side chain or, on linkers, in order; H or OH if unused. Where a SMILES comes first, the peptide text is derived from it. Bridges are numbered along the chain shown (N, C = ends). [ ]: non-standard residue; d: D form. The star is where a group is joined. NODAGA = O=C(O)CN1CCN(CC(=O)O)CCN(C(CCC(=O)*)C(=O)O)CC1; X1 = NC(=O)Nc1ccc(CC(N[*:1])C(=O)[*:2])cc1; Phe(4-Cl) = N[CH](Cc1ccc(Cl)cc1)C(=O)O
ATTRIBUTE MEASURED: tissue to tissue ratio at 4 h

| COMPOUND | REPORTED |
| --- | --- |
| CC(O)C1NC(=O)C(CCCCN)NC(=O)C(Cc2ccc(NC(N)=O)cc2)NC(=O)C(Cc2ccc(O)cc2)NC(=O)C(NC(=O)C(Cc2ccc(Cl)cc2)NC(=O)CCC(C(=O)O)N2CCN(CC(=O)O)CCN(CC(=O)O)CC2)CSSCC(C(=O)NC(Cc2ccc(O)cc2)C(N)=O)NC1=O (stereo not shown) [[^61Cu]Cu-NODAGA-LM3, metal not drawn] ({NODAGA}-[Phe(4-Cl)]CY[X1]KTCY-NH2; disulfide 2-7; configuration not given here) | 181 |

---

- ASSAY TEXT: in vivo
- CONDITIONS USED: athymic nude Foxn1^nu, mouse, total radioactivity, Uptake Lung
*1 amine or outer side, *2 acyl side, *3 side chain or, on linkers, in order; H or OH if unused. Where a SMILES comes first, the peptide text is derived from it. Bridges are numbered along the chain shown (N, C = ends). [ ]: non-standard residue; d: D form. The star is where a group is joined. NODAGA = O=C(O)CN1CCN(CC(=O)O)CCN(C(CCC(=O)*)C(=O)O)CC1; X1 = NC(=O)Nc1ccc(CC(N[*:1])C(=O)[*:2])cc1; Phe(4-Cl) = N[CH](Cc1ccc(Cl)cc1)C(=O)O

| COMPOUND | tissue uptake at 4 h |
| --- | --- |
| CC(O)C1NC(=O)C(CCCCN)NC(=O)C(Cc2ccc(NC(N)=O)cc2)NC(=O)C(Cc2ccc(O)cc2)NC(=O)C(NC(=O)C(Cc2ccc(Cl)cc2)NC(=O)CCC(C(=O)O)N2CCN(CC(=O)O)CCN(CC(=O)O)CC2)CSSCC(C(=O)NC(Cc2ccc(O)cc2)C(N)=O)NC1=O (stereo not shown) [[^61Cu]Cu-NODAGA-LM3, metal not drawn] ({NODAGA}-[Phe(4-Cl)]CY[X1]KTCY-NH2; disulfide 2-7; configuration not given here) | 0.67 %ID/g |

---

- ASSAY TEXT: Specificity (blocking) study with excess DOTA-LM3
- CONDITIONS USED: athymic nude Foxn1^nu, mouse, bone, 0.15 MBq, total radioactivity, Uptake Bone, 4 hours post-injection, non-blocking
Where a SMILES comes first, the peptide text is derived from it. Bridges are numbered along the chain shown (N, C = ends). [ ]: non-standard residue; d: D form. The star is where a group is joined. X2 = O=C(O)CN1CCN(CC(=O)O)CCN([C@H](CCC(=O)*)C(=O)O)CC1; dPhe(4-NHCONH2) = NC(=O)Nc1ccc(C[C@@H](N)C(=O)O)cc1; Phe(4-Cl) = N[C@@H](Cc1ccc(Cl)cc1)C(=O)O
ATTRIBUTE MEASURED: tissue uptake at 4 h

| MOLECULE | REPORTED |
| --- | --- |
| C[C@@H](O)[C@@H]1NC(=O)[C@H](CCCCN)NC(=O)[C@@H](Cc2ccc(NC(N)=O)cc2)NC(=O)[C@H](Cc2ccc(O)cc2)NC(=O)[C@H](NC(=O)[C@H](Cc2ccc(Cl)cc2)NC(=O)CC[C@H](C(=O)O)N2CCN(CC(=O)O)CCN(CC(=O)O)CC2)CSSC[C@@H](C(=O)N[C@H](Cc2ccc(O)cc2)C(N)=O)NC1=O [[^64Cu]Cu-NODAGA-LM3, metal not drawn] (X2-[Phe(4-Cl)][dC]Y[dPhe(4-NHCONH2)]KTC[dY]-NH2; disulfide 2-7) | 0.39 %ID/g |

---

- ASSAY TEXT: Biodistribution studies
- Assay type: in vivo, mice
- CONDITIONS USED: athymic nude Foxn1^nu, mouse, in vivo, iv, 1 MBq, total radioactivity, Uptake [% IA/g] HEK-STT2-tumor
*1 amine or outer side, *2 acyl side, *3 side chain or, on linkers, in order; H or OH if unused. Where a SMILES comes first, the peptide text is derived from it. Bridges are numbered along the chain shown (N, C = ends). [ ]: non-standard residue; d: D form. The star is where a group is joined. NODAGA = O=C(O)CN1CCN(CC(=O)O)CCN(C(CCC(=O)*)C(=O)O)CC1; X1 = NC(=O)Nc1ccc(CC(N[*:1])C(=O)[*:2])cc1; Phe(4-Cl) = N[CH](Cc1ccc(Cl)cc1)C(=O)O

| MOLECULE | tissue uptake at 4 h, %ID/g |
| --- | --- |
| CC(O)C1NC(=O)C(CCCCN)NC(=O)C(Cc2ccc(NC(N)=O)cc2)NC(=O)C(Cc2ccc(O)cc2)NC(=O)C(NC(=O)C(Cc2ccc(Cl)cc2)NC(=O)CCC(C(=O)O)N2CCN(CC(=O)O)CCN(CC(=O)O)CC2)CSSCC(C(=O)NC(Cc2ccc(O)cc2)C(N)=O)NC1=O (stereo not shown) [[^61Cu]Cu-NODAGA-LM3, metal not drawn] ({NODAGA}-[Phe(4-Cl)]CY[X1]KTCY-NH2; disulfide 2-7; configuration not given here) | 19 |

---

- ASSAY TEXT: in vivo
- CONDITIONS USED: athymic nude Foxn1^nu, mouse, total radioactivity, Uptake Blood
*1 amine or outer side, *2 acyl side, *3 side chain or, on linkers, in order; H or OH if unused. Where a SMILES comes first, the peptide text is derived from it. Bridges are numbered along the chain shown (N, C = ends). [ ]: non-standard residue; d: D form. The star is where a group is joined. NODAGA = O=C(O)CN1CCN(CC(=O)O)CCN(C(CCC(=O)*)C(=O)O)CC1; X1 = NC(=O)Nc1ccc(CC(N[*:1])C(=O)[*:2])cc1; Phe(4-Cl) = N[CH](Cc1ccc(Cl)cc1)C(=O)O
ATTRIBUTE MEASURED: tissue uptake at 4 h (%ID/g)

| COMPOUND | ATTRIBUTE MEASURED | REPORTED |
| --- | --- | --- |
| CC(O)C1NC(=O)C(CCCCN)NC(=O)C(Cc2ccc(NC(N)=O)cc2)NC(=O)C(Cc2ccc(O)cc2)NC(=O)C(NC(=O)C(Cc2ccc(Cl)cc2)NC(=O)CCC(C(=O)O)N2CCN(CC(=O)O)CCN(CC(=O)O)CC2)CSSCC(C(=O)NC(Cc2ccc(O)cc2)C(N)=O)NC1=O (stereo not shown) [[^61Cu]Cu-NODAGA-LM3, metal not drawn] ({NODAGA}-[Phe(4-Cl)]CY[X1]KTCY-NH2; disulfide 2-7; configuration not given here) | tissue uptake at 4 h | 0.11 |

---

- ASSAY TEXT: in vivo
- CONDITIONS USED: female, athymic nude Foxn1^nu, mouse, iv, 0.15 MBq, total radioactivity, Uptake Intestine
*1 amine or outer side, *2 acyl side, *3 side chain or, on linkers, in order; H or OH if unused. Where a SMILES comes first, the peptide text is derived from it. Bridges are numbered along the chain shown (N, C = ends). [ ]: non-standard residue; d: D form. The star is where a group is joined. NODAGA = O=C(O)CN1CCN(CC(=O)O)CCN(C(CCC(=O)*)C(=O)O)CC1; X1 = NC(=O)Nc1ccc(CC(N[*:1])C(=O)[*:2])cc1; Phe(4-Cl) = N[CH](Cc1ccc(Cl)cc1)C(=O)O
ATTRIBUTE MEASURED: tissue uptake at 4 h (%ID/g)

| MOLECULE | ATTRIBUTE MEASURED | REPORTED |
| --- | --- | --- |
| CC(O)C1NC(=O)C(CCCCN)NC(=O)C(Cc2ccc(NC(N)=O)cc2)NC(=O)C(Cc2ccc(O)cc2)NC(=O)C(NC(=O)C(Cc2ccc(Cl)cc2)NC(=O)CCC(C(=O)O)N2CCN(CC(=O)O)CCN(CC(=O)O)CC2)CSSCC(C(=O)NC(Cc2ccc(O)cc2)C(N)=O)NC1=O (stereo not shown) [[^61Cu]Cu-NODAGA-LM3, metal not drawn] ({NODAGA}-[Phe(4-Cl)]CY[X1]KTCY-NH2; disulfide 2-7; configuration not given here) | tissue uptake at 4 h | 0.46 |

---

- ASSAY TEXT: Biodistribution studies
- Format: in vivo, mice
- CONDITIONS USED: athymic nude Foxn1^nu, mouse, in vivo, iv, 1 MBq, total radioactivity, Uptake [% IA/g] Pituitary
*1 amine or outer side, *2 acyl side, *3 side chain or, on linkers, in order; H or OH if unused. Where a SMILES comes first, the peptide text is derived from it. Bridges are numbered along the chain shown (N, C = ends). [ ]: non-standard residue; d: D form. The star is where a group is joined. NODAGA = O=C(O)CN1CCN(CC(=O)O)CCN(C(CCC(=O)*)C(=O)O)CC1; X1 = NC(=O)Nc1ccc(CC(N[*:1])C(=O)[*:2])cc1; Phe(4-Cl) = N[CH](Cc1ccc(Cl)cc1)C(=O)O
ATTRIBUTE MEASURED: tissue uptake at 4 h (%ID/g)

| COMPOUND | ATTRIBUTE MEASURED | REPORTED |
| --- | --- | --- |
| CC(O)C1NC(=O)C(CCCCN)NC(=O)C(Cc2ccc(NC(N)=O)cc2)NC(=O)C(Cc2ccc(O)cc2)NC(=O)C(NC(=O)C(Cc2ccc(Cl)cc2)NC(=O)CCC(C(=O)O)N2CCN(CC(=O)O)CCN(CC(=O)O)CC2)CSSCC(C(=O)NC(Cc2ccc(O)cc2)C(N)=O)NC1=O (stereo not shown) [[^61Cu]Cu-NODAGA-LM3, metal not drawn] ({NODAGA}-[Phe(4-Cl)]CY[X1]KTCY-NH2; disulfide 2-7; configuration not given here) | tissue uptake at 4 h | 3.64 |

Reference source for all entries: patent US20260151517A1
